Procedure Text: Transport of AGE mixture across Caco-2 cell layer (transwell, apical to basolateral)
Format: in vitro ADME, Human
Experimental Setup: human, Caco-2, standard treatment (37 °C); equimolar mixture of 10 AGEs, each 100 μmol/L apical; data from 120 min
Measured Metric: Papp at 120 min, 100 μmol/L (×10⁻⁶ cm/s)

Compound | Quantitative Readout
N[C@@H](CCCCNC(=O)CO)C(=O)O [GALA, glycolic acid–lysine–amide] | 0.448
Cc1nc(NCCC[C@H](N)C(=O)O)nc(C)c1O | 0.145
N[C@@H](CCCCn1cc[n+](CCCC[C@H](N)C(=O)O)c1)C(=O)O | 0.134
N[C@@H](CCCC[n+]1cccc2[nH]c(NCCC[C@H](N)C(=O)O)nc21)C(=O)O | 0.083

###

Test system: Caco-2 cell layer
Procedure Text: Transport of AGE mixture across Caco-2 cell layer (transwell, apical to basolateral)
Format: in vitro ADME, Human
Experimental Setup: Gly-Sar 10 mmol/L; mixture, each AGE 100 μmol/L; 2 h
Marks after values point to notes of the source that are not given here.
percentage of the amount added at the apical side at t = 0: basolateral side values for the molecules below.
Measured Metric: percentage of the amount added at the apical side at t = 0: basolateral side

Molecule | Target Entity | Result
CC(NCCCC[C@H](N)C(=O)O)C(=O)O (stereo partly drawn) | Caco-2 cell layer | 0.4 ± 0.1 ^a %
N[C@@H](CCCCn1c(C=O)ccc1CO)C(=O)O | Caco-2 cell layer | 0.2 ± 0.1 ^b %
Cc1c[n+](CCCC[C@H](N)C(=O)O)cn1CCCC[C@H](N)C(=O)O | Caco-2 cell layer | 0.3 ± 0.2 ^b %
N[C@@H](CCCCNC(=O)CO)C(=O)O [GALA, glycolic acid–lysine–amide] | Caco-2 cell layer | 0.8 ± 0.2 ^b %
N[C@@H](CCCC[n+]1cccc2[nH]c(NCCC[C@H](N)C(=O)O)nc21)C(=O)O | Caco-2 cell layer | 0.1 ± 0.1 ^b %
Cc1nc(NCCC[C@H](N)C(=O)O)nc(C)c1O | Caco-2 cell layer | 0.3 ± 0.1 ^b %
N[C@@H](CCCCn1cc[n+](CCCC[C@H](N)C(=O)O)c1)C(=O)O | Caco-2 cell layer | 0.2 ± 0.1 ^b %
N[C@@H](CCCCNCC(=O)O)C(=O)O | Caco-2 cell layer | 0.5 ± 0.1 ^b %
CC1NC(NCCC[C@H](N)C(=O)O)=NC1=O (stereo partly drawn) [MG-H1, methylglyoxal–hydroimidazolone] | Caco-2 cell layer | 0.4 ± 0.2 ^b %

###

Procedure Text: Transport of AGE mixture across Caco-2 cell layer (transwell, apical to basolateral)
Assay type: in vitro ADME, Human
Experimental Setup: human, Caco-2; cytochalasin D 1 μg/mL, 30 min apical preincubation; mixture, each AGE 100 μmol/L; data from 120 min
Please enter yes (1) where Papp at 120 min, 100 μmol/L is greater than or equal to 0.5 ×10⁻⁶ cm/s, and no (0) where it is lower.

Compound | Class Name
N[C@@H](CCCCn1cc[n+](CCCC[C@H](N)C(=O)O)c1)C(=O)O | no (0)
N[C@@H](CCCC[n+]1cccc2[nH]c(NCCC[C@H](N)C(=O)O)nc21)C(=O)O | no (0)
Cc1c[n+](CCCC[C@H](N)C(=O)O)cn1CCCC[C@H](N)C(=O)O | no (0)
N[C@@H](CCCCNC(=O)CO)C(=O)O [GALA, glycolic acid–lysine–amide] | yes (1)
N[C@@H](CCCCn1c(C=O)ccc1CO)C(=O)O | no (0)
N[C@@H](CCCCNCC(=O)O)C(=O)O | yes (1)
CC1NC(NCCC[C@H](N)C(=O)O)=NC1=O (stereo partly drawn) [MG-H1, methylglyoxal–hydroimidazolone] | yes (1)
Cc1nc(NCCC[C@H](N)C(=O)O)nc(C)c1O | no (0)

###

percentage of the amount added at the apical side at t = 0: accumulation values for the compounds below.
System: Caco-2 cell monolayer
Procedure Text: Accumulation of AGEs in the Caco-2 cell monolayer after transport experiment
Type: in vitro ADME, Human
Experimental Setup: cytochalasin D pretreatment; mixture, each AGE 100 μmol/L; 2 h
Marks after values point to notes of the source that are not given here.
Measured Metric: percentage of the amount added at the apical side at t = 0: accumulation

Compound | Target Entity | Result
N[C@@H](CCCCNCC(=O)O)C(=O)O | Caco-2 cell monolayer | 3.8 ± 0.9 ^b %
Cc1nc(NCCC[C@H](N)C(=O)O)nc(C)c1O | Caco-2 cell monolayer | 0.5 ± 0.3 ^a %
Cc1c[n+](CCCC[C@H](N)C(=O)O)cn1CCCC[C@H](N)C(=O)O | Caco-2 cell monolayer | 0.0 ± 0.1 ^a %
N[C@@H](CCCC[n+]1cccc2[nH]c(NCCC[C@H](N)C(=O)O)nc21)C(=O)O | Caco-2 cell monolayer | 0.0 ± 0.0 ^a %
CC(NCCCC[C@H](N)C(=O)O)C(=O)O (stereo partly drawn) | Caco-2 cell monolayer | 1.2 ± 0.2 ^a %
N[C@@H](CCCCn1cc[n+](CCCC[C@H](N)C(=O)O)c1)C(=O)O | Caco-2 cell monolayer | 0.0 ± 0.0 ^ab %
CC1NC(NCCC[C@H](N)C(=O)O)=NC1=O (stereo partly drawn) [MG-H1, methylglyoxal–hydroimidazolone] | Caco-2 cell monolayer | 0.3 ± 0.1 ^b %
N[C@@H](CCCCn1c(C=O)ccc1CO)C(=O)O | Caco-2 cell monolayer | 0.2 ± 0.1 ^a %
N[C@@H](CCCCNC(=O)CO)C(=O)O [GALA, glycolic acid–lysine–amide] | Caco-2 cell monolayer | 0.2 ± 0.1 ^a %

###

percentage of the amount added at the apical side at t = 0: apical side (nontransported) values for the compounds below.
Test system: Caco-2 cell layer
Procedure Text: Transport of AGE mixture across Caco-2 cell layer (transwell, apical to basolateral)
Format: in vitro ADME, Human
Experimental Setup: standard treatment; mixture, each AGE 100 μmol/L; 2 h
Marks after values point to notes of the source that are not given here.
Measured Metric: percentage of the amount added at the apical side at t = 0: apical side (nontransported)

Compound | Result
CC1NC(NCCC[C@H](N)C(=O)O)=NC1=O (stereo partly drawn) [MG-H1, methylglyoxal–hydroimidazolone] | 93.4 ± 3.6 ^a %
N[C@@H](CCCCNCC(=O)O)C(=O)O | 89.0 ± 6.1 ^a %
N[C@@H](CCCCNC(=O)CO)C(=O)O [GALA, glycolic acid–lysine–amide] | 85.0 ± 7.1 ^a %
N[C@@H](CCCC[n+]1cccc2[nH]c(NCCC[C@H](N)C(=O)O)nc21)C(=O)O | 89.1 ± 12.2 ^a %
Cc1c[n+](CCCC[C@H](N)C(=O)O)cn1CCCC[C@H](N)C(=O)O | 90.6 ± 7.7 ^ab %
N[C@@H](CCCCn1c(C=O)ccc1CO)C(=O)O | 88.6 ± 5.5 ^a %
N[C@@H](CCCCn1cc[n+](CCCC[C@H](N)C(=O)O)c1)C(=O)O | 94.6 ± 8.1 ^ab %
CC(NCCCC[C@H](N)C(=O)O)C(=O)O (stereo partly drawn) | 95.0 ± 7.00 ^a %
Cc1nc(NCCC[C@H](N)C(=O)O)nc(C)c1O | 91.2 ± 5.9 ^ab %

###

Procedure Text: Transport of AGE mixture across Caco-2 cell layer (transwell, apical to basolateral)
Assay type: in vitro ADME, Human
Experimental Setup: human, Caco-2, standard treatment; mixture, each AGE 100 μmol/L; 2 h; read-out: percentage of the amount added at the apical side at t = 0: recovery
Measured Metric: recovery at 2 h, 100 μmol/L (%)

Compound | Quantitative Readout
N[C@@H](CCCCn1c(C=O)ccc1CO)C(=O)O | 89
N[C@@H](CCCCNCC(=O)O)C(=O)O | 93.1
Cc1c[n+](CCCC[C@H](N)C(=O)O)cn1CCCC[C@H](N)C(=O)O | 90.8
N[C@@H](CCCCn1cc[n+](CCCC[C@H](N)C(=O)O)c1)C(=O)O | 95
Cc1nc(NCCC[C@H](N)C(=O)O)nc(C)c1O | 91.8
CC(NCCCC[C@H](N)C(=O)O)C(=O)O (stereo partly drawn) | 96.5
N[C@@H](CCCC[n+]1cccc2[nH]c(NCCC[C@H](N)C(=O)O)nc21)C(=O)O | 96.9
N[C@@H](CCCCNC(=O)CO)C(=O)O [GALA, glycolic acid–lysine–amide] | 86.2
CC1NC(NCCC[C@H](N)C(=O)O)=NC1=O (stereo partly drawn) [MG-H1, methylglyoxal–hydroimidazolone] | 94.1

###

Procedure Text: Transport of AGE mixture across Caco-2 cell layer (transwell, apical to basolateral)
Type: in vitro ADME, Human
Experimental Setup: human, Caco-2, standard treatment (37 °C); equimolar mixture of 10 AGEs, each 100 μmol/L apical; data from 120 min
Papp at 120 min, 100 μmol/L values for the compounds below.
Measured Metric: Papp at 120 min, 100 μmol/L (×10⁻⁶ cm/s)

Compound | Quantitative Readout
CC(NCCCC[C@H](N)C(=O)O)C(=O)O (some centres unmarked) | 0.164
N[C@@H](CCCCNCC(=O)O)C(=O)O | 0.219
Cc1c[n+](CCCC[C@H](N)C(=O)O)cn1CCCC[C@H](N)C(=O)O | 0.098
CC1NC(NCCC[C@H](N)C(=O)O)=NC1=O (some centres unmarked) [MG-H1, methylglyoxal–hydroimidazolone] | 0.182
N[C@@H](CCCCn1c(C=O)ccc1CO)C(=O)O | 0.1
